tgt: T1, human IGF-1R(1-903)-Fc (human, UniProt P08069 31-933)
T1 construct: also called hIGF-1R-Fc; SDWT; not shown: human IgG1 Fc, C-terminal tag
assay remarks: biolayer interferometry (Octet), IGF-1R Fc on Protein A sensors, scFv culture supernatant
Design: unit not given here
Reported values of Kd (1/sec), off-rate as tabulated (XWU092 = 1.00) for individual entries
measurement kind: Kd (1/sec), off-rate as tabulated (XWU092 = 1.00)

{"columns": ["binder", "measured result"],
 "data": [
  ["MJF020, C06 (VL/GS3/VH) scFv with VL V15E (scFv, Kabat positions) scFv: DIQMTQSPLSLSASEGDRVTITCQASRDIRNYLNWYQQKPGKAPKLLIYDASSLQTGVPSRFGGSGSGTDFSFTIGSLQPEDIATYYCQQFDSLPHTFGQGTKLEIKGGGGSGGGGSGGGGSEVQLLESGGGLVQPGGSLRLSCAASGFTFSIYRMQWVRQAPGKGLEWVSGISPSGGTTWYADSVKGRFTISRDNSKNTLYLQMNSLRAEDTAVYYCARWSGGSGYAFDIWGQGTMVTVSSDDDKSFLEQKLISEEDLNSAVDHHHHHH", 0.76],
  ["MJF016, C06 (VL/GS3/VH) scFv with VL D70E (scFv, Kabat positions) scFv: DIQMTQSPLSLSASVGDRVTITCQASRDIRNYLNWYQQKPGKAPKLLIYDASSLQTGVPSRFGGSGSGTEFSFTIGSLQPEDIATYYCQQFDSLPHTFGQGTKLEIKGGGGSGGGGSGGGGSEVQLLESGGGLVQPGGSLRLSCAASGFTFSIYRMQWVRQAPGKGLEWVSGISPSGGTTWYADSVKGRFTISRDNSKNTLYLQMNSLRAEDTAVYYCARWSGGSGYAFDIWGQGTMVTVSSDDDKSFLEQKLISEEDLNSAVDHHHHHH", 1.03]
]}

Recorded values, source patent US20090130105A1.
